Hello, the source for this data is patent US20250382369A1, in case you need it.

Target: T1, human 4Ig-B7-H3 expressed on transduced cells (human, UniProt Q5ZPR3 29-534)
T1 construct: also called isoform 1; Jurkat-B7H3
T1 sequence: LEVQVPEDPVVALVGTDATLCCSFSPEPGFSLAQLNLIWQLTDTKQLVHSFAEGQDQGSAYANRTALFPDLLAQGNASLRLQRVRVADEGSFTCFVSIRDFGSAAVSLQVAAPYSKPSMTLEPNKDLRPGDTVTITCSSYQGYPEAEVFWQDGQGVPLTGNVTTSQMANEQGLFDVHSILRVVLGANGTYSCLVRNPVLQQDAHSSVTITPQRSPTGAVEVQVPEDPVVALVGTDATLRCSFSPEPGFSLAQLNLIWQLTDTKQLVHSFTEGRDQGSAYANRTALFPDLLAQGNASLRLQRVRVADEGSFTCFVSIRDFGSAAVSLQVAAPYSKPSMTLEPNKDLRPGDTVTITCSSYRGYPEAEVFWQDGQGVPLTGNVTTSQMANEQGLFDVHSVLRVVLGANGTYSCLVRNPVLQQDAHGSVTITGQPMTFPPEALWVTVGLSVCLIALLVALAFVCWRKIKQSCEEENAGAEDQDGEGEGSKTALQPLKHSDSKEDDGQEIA
Experiment: flow cytometry, scFv-Fc on Jurkat cells transduced with B7-H3 isoforms (FIG. 2D)
measured attribute: binding result

TC6 scFv-Fc fusion protein (Fc fusion, not shown: a dimerising Fc or GST; small tags and cut ends) scFv: QVKLQESGAELVKPGASVKLSCKASGYTFTSYWIHWVKQRPGQGLEWIGMIHPKSGSINYNEKFRSKATLTVDKSSSTAYMQLSRLTSEDSAVYFCASGGYGSSLDYWGQGTTVTVSSGGGGSGGGGSGGGGSQIVLTQSPAIMSASPGEKVTMTCSASSSVSYMYWYQQKPRSSPISWIYLTSNLASGVPARFSGSGSGTSYSLTISSMEAEDAATYYCQQWSSDPLTFGAGTKLELK	binds
BF9 scFv-Fc fusion protein (Fc fusion, not shown: Fc of the scFv-Fc fusion, and any hinge or junction to it) scFv: QVKLQQSGAELVKPGASVKLSCKASGYTFTSYWVHWVKQRPGQGLEWIGMIHPKSGSADYNEKFTTKATLTADKSSSTAYMQLSSLTSEDSAVYYCARGGYGSPFDYWGQGTTVTVSSGGGGSGGGGSGGGGSENVLTQSPAIMSASPGEKVTMTCSASSSVSYMYWYQQKPGSSPRLLIYDTSNLASGAPVRFSGRGSGTSYSLTISSMEAEDAATYYCQQWSNNPLTFGAGTKLELK	binds
